Molecular target: NR2F6 LBD (Homo sapiens, UniProt P10588)
Construct: expressed in transfected cells
Sequence (P10588 165-393 limits assumed): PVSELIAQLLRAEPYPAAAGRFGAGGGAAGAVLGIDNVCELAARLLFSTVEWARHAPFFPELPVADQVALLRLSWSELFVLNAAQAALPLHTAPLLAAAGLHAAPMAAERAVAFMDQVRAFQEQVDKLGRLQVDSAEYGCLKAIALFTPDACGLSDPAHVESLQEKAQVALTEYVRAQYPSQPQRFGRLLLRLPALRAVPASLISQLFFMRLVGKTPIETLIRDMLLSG
Experiment: NR2F6 LBD transient transfection
Assay type: cell-based
Settings: 2 uM; LBD
For each of the molecules below, state its Firefly LBD, cmpd/DMSO (mean).
Give the value as a plain number.

Query string: Bench note: what Firefly LBD, cmpd/DMSO (mean) did C[C@@H]1C[C@H](C)CN([C@H]2CS(=O)(=O)C[C@@H]2S(=O)(=O)c2cccs2)C1 [Compound D109] show?
Result string: 2.1

Query string: Bench note: what Firefly LBD, cmpd/DMSO (mean) did O=S1(=O)C[C@H](N2CCCC2)[C@@H](S(=O)(=O)c2ccc(Cl)cc2)C1 [Compound D122] show?
Result string: 2.5

Query string: Bench note: what Firefly LBD, cmpd/DMSO (mean) did CCC(C)N[C@H]1CS(=O)(=O)C[C@@H]1S(=O)(=O)c1ccc(C)cc1 (stereo partly drawn) [Compound D113] show?
Result string: 1.3

Query string: Bench note: what Firefly LBD, cmpd/DMSO (mean) did CCCCN(C)[C@H]1CS(=O)(=O)C[C@@H]1S(=O)(=O)c1ccc(Cl)cc1 [Compound D132] show?
Result string: 2.1

Query string: Bench note: what Firefly LBD, cmpd/DMSO (mean) did CC1CCN([C@H]2CS(=O)(=O)C[C@@H]2S(=O)(=O)c2cccs2)CC1 [Compound D106] show?
Result string: 1.7

Query string: Bench note: what Firefly LBD, cmpd/DMSO (mean) did O=S1(=O)C[C@H](N2CCCC2)[C@@H](S(=O)(=O)c2cccs2)C1 [Compound D104] show?
Result string: 1.7

Query string: Bench note: what Firefly LBD, cmpd/DMSO (mean) did CC(C)CCN[C@H]1CS(=O)(=O)C[C@@H]1S(=O)(=O)c1ccc(Cl)cc1 [Compound D131] show?
Result string: 2.0

Query string: Bench note: what Firefly LBD, cmpd/DMSO (mean) did CC1CCN([C@H]2CS(=O)(=O)C[C@@H]2S(=O)(=O)c2ccc(Cl)cc2)CC1 [Compound D125] show?
Result string: 1.6

Query string: Bench note: what Firefly LBD, cmpd/DMSO (mean) did O=S1(=O)C[C@H](NC2CCCC2)[C@@H](S(=O)(=O)c2ccc(F)cc2)C1 [Compound D114] show?
Result string: 1.3

Query string: Bench note: what Firefly LBD, cmpd/DMSO (mean) did CCC(C)N[C@H]1CS(=O)(=O)C[C@@H]1S(=O)(=O)c1ccc(Cl)cc1 (stereo partly drawn) [Compound D121] show?
Result string: 1.5

Query string: Bench note: what Firefly LBD, cmpd/DMSO (mean) did C[C@@H]1C[C@H](C)CN([C@H]2CS(=O)(=O)C[C@@H]2S(=O)(=O)c2ccccc2)C1 [Compound D112] show?
Result string: 1.2

Query string: Bench note: what Firefly LBD, cmpd/DMSO (mean) did CC(C)N[C@H]1CS(=O)(=O)C[C@@H]1S(=O)(=O)c1ccc(Cl)cc1 [Compound D118] show?
Result string: 1.8

Query string: Bench note: what Firefly LBD, cmpd/DMSO (mean) did O=S1(=O)C[C@H](NC2CCCCC2)[C@@H](S(=O)(=O)c2ccccc2)C1 [Compound D111] show?
Result string: 1.4

Query string: Bench note: what Firefly LBD, cmpd/DMSO (mean) did COCCN[C@H]1CS(=O)(=O)C[C@@H]1S(=O)(=O)c1cccs1 [Compound D107] show?
Result string: 1.1

Query string: Bench note: what Firefly LBD, cmpd/DMSO (mean) did COc1ccc(CCN[C@H]2CS(=O)(=O)C[C@@H]2S(=O)(=O)c2ccc(Cl)cc2)cc1OC [Compound D129] show?
Result string: 1.7

Query string: Bench note: what Firefly LBD, cmpd/DMSO (mean) did Cc1cc(S(=O)(=O)[C@H]2CS(=O)(=O)C[C@@H]2NCC2CCCO2)ccc1F (stereo partly drawn) [Compound D115] show?
Result string: 0.9

Query string: Bench note: what Firefly LBD, cmpd/DMSO (mean) did COCCCN[C@H]1CS(=O)(=O)C[C@@H]1S(=O)(=O)c1ccc(Cl)cc1 [Compound D126] show?
Result string: 1.5

Query string: Bench note: what Firefly LBD, cmpd/DMSO (mean) did CC(C)CN[C@H]1CS(=O)(=O)C[C@@H]1S(=O)(=O)c1ccc(Cl)cc1 [Compound D120] show?
Result string: 1.7

Query string: Bench note: what Firefly LBD, cmpd/DMSO (mean) did CCCCN[C@H]1CS(=O)(=O)C[C@@H]1S(=O)(=O)c1ccc(Cl)cc1 [Compound D119] show?
Result string: 1.5

Query string: Bench note: what Firefly LBD, cmpd/DMSO (mean) did CC(=O)N1CCN([C@H]2CS(=O)(=O)C[C@@H]2S(=O)(=O)c2ccc(F)c(C)c2)CC1 [Compound D116] show?
Result string: 1.2

Query string: Bench note: what Firefly LBD, cmpd/DMSO (mean) did CC(=O)Nc1ccc(S(=O)(=O)[C@H]2CS(=O)(=O)C[C@@H]2NC2CC2)cc1 [Compound D133] show?
Result string: 1.1

Query string: Bench note: what Firefly LBD, cmpd/DMSO (mean) did O=S1(=O)C[C@H](NC2CCCCCC2)[C@@H](S(=O)(=O)c2ccc(Cl)cc2)C1 [Compound D130] show?
Result string: 1.7

Query string: Bench note: what Firefly LBD, cmpd/DMSO (mean) did CCCN[C@H]1CS(=O)(=O)C[C@@H]1S(=O)(=O)c1ccc(Cl)cc1 [Compound D117] show?
Result string: 2.1

Query string: Bench note: what Firefly LBD, cmpd/DMSO (mean) did CC(C)CCN[C@H]1CS(=O)(=O)C[C@@H]1S(=O)(=O)c1cccs1 [Compound D110] show?
Result string: 1.4

Query string: Bench note: what Firefly LBD, cmpd/DMSO (mean) did O=S1(=O)C[C@H](N2CCCCC2)[C@@H](S(=O)(=O)c2ccc(Cl)cc2)C1 [Compound D123] show?
Result string: 1.9

Query string: Bench note: what Firefly LBD, cmpd/DMSO (mean) did O=S1(=O)C[C@H](N2CCCCC2)[C@@H](S(=O)(=O)c2cccs2)C1 [Compound D105] show?
Result string: 1.8

Query string: Bench note: what Firefly LBD, cmpd/DMSO (mean) did O=S1(=O)C[C@H](NC2CCCCC2)[C@@H](S(=O)(=O)c2ccc(Cl)cc2)C1 [Compound D124] show?
Result string: 1.6

Query string: Bench note: what Firefly LBD, cmpd/DMSO (mean) did O=S1(=O)C[C@H](NCc2ccncc2)[C@@H](S(=O)(=O)c2cccs2)C1 [Compound D108] show?
Result string: 1.4

Query string: Bench note: what Firefly LBD, cmpd/DMSO (mean) did Cc1cccc(CN[C@H]2CS(=O)(=O)C[C@@H]2S(=O)(=O)c2ccc(Cl)cc2)c1 [Compound D127] show?
Result string: 1.2

Query string: Bench note: what Firefly LBD, cmpd/DMSO (mean) did O=S1(=O)C[C@H](NCCc2cccs2)[C@@H](S(=O)(=O)c2ccc(Cl)cc2)C1 [Compound D128] show?
Result string: 1.1
